MEASUREMENT_NOTES: Antiproliferative activity against human Skov3 NTRneo cells after 18 hrs
Type: functional, cell-based
EXPERIMENTAL_CONDITIONS: SK-OV-3, 18 h
Please go through the items and note down their pIC50.
# pIC50 = -log10(concentration in molar units)

Query :: Data request, read-out pIC50, for `NC(=O)c1cc(N(CCCl)CCBr)c([N+](=O)[O-])cc1[N+](=O)[O-]`
Result :: 6.08

Query :: # repeat for CS(=O)(=O)OCCN(CCCl)c1cc(C(=O)NCC(O)CO)c([N+](=O)[O-])cc1[N+](=O)[O-] (centres undefined)
Result :: 5.30

Query :: Also `CS(=O)(=O)OCCN(CCCl)c1cc(C(N)=O)c([N+](=O)[O-])cc1[N+](=O)[O-]` ?
Result :: 6.11

Query :: How about this compound: `O=C(NCCO)c1cc(N(CCCl)CCCl)c([N+](=O)[O-])cc1[N+](=O)[O-]`
Result :: 5.23

----------
For each entry below, report its pIC50 value.
MEASUREMENT_NOTES: Antiproliferative activity against human Skov3 NTRneo cells after 18 hrs
Assay type: functional, cell-based
EXPERIMENTAL_CONDITIONS: SK-OV-3, 18 h
On this scale, pIC50 is minus log10 of a concentration expressed in M (mol/L).

Query :: I have this molecule here, `O=C(NCCCO)c1cc(N(CCCl)CCCl)c([N+](=O)[O-])cc1[N+](=O)[O-]` , and I need its recorded pIC50.
Result :: 5.19

Query :: Now give it for `CS(=O)(=O)OCCN(CCOS(C)(=O)=O)c1cc(C(N)=O)c([N+](=O)[O-])cc1[N+](=O)[O-]` too.
Result :: 5.92

Query :: Similarly, `O=C(NCCN1CCOCC1)c1cc(N(CCCl)CCCl)c([N+](=O)[O-])cc1[N+](=O)[O-]` ?
Result :: 4.09

Query :: Next record, please: `O=C(NCCCO)c1cc(N(CCBr)CCBr)c([N+](=O)[O-])cc1[N+](=O)[O-]`
Result :: 6.64

Query :: How about this molecule: `O=C(NCCCn1ccnc1)c1cc(N(CCCl)CCCl)c([N+](=O)[O-])cc1[N+](=O)[O-]`
Result :: 4.74

Query :: Can you check O=C(NCC(O)CO)c1cc(N(CCBr)CCBr)c([N+](=O)[O-])cc1[N+](=O)[O-] (centres undefined) next?
Result :: 6.55

Query :: # repeat for O=C(NCC(O)CO)c1cc(N(CCI)CCI)c([N+](=O)[O-])cc1[N+](=O)[O-] (centres undefined)
Result :: 6.25

Query :: Record: O=C(NCC(O)CO)c1cc(N(CCCl)CCCl)c([N+](=O)[O-])cc1[N+](=O)[O-] (centres undefined)
Result :: 5.29

Query :: `CS(=O)(=O)c1cc([N+](=O)[O-])c(C(N)=O)cc1N(CCBr)CCBr` ?
Result :: 6.40

----------
MEASUREMENT_NOTES: Solubility in alpha MEM
Type: physicochemical
OBSERVABLE: log10 of solubility (log10 of the value in µM)
Could you please treat all values as log10 of solubility in µM?

Query :: Need log10 of solubility, item `O=C(NCCO)c1cc(N(CCCl)CCCl)c([N+](=O)[O-])cc1[N+](=O)[O-]`
Result :: 3.00

Query :: Moving on to `O=C(NCCCn1ccnc1)c1cc(N(CCCl)CCCl)c([N+](=O)[O-])cc1[N+](=O)[O-]`
Result :: 4.28

Query :: And what about the compound `CS(=O)(=O)c1cc([N+](=O)[O-])c(N(CCCl)CCCl)cc1C(N)=O` ?
Result :: 1.78

Query :: Input `CS(=O)(=O)OCCN(CCBr)c1cc(C(=O)NCCO)c([N+](=O)[O-])cc1[N+](=O)[O-]`
Result :: 3.23

Query :: # repeat for `O=C(NCCCN1CCOCC1)c1cc(N(CCCl)CCCl)c([N+](=O)[O-])cc1[N+](=O)[O-]`
Result :: 4.34

Query :: // query: `O=C(NCCCN1CCOCC1)c1cc(N(CCBr)CCBr)c([N+](=O)[O-])cc1[N+](=O)[O-]`
Result :: 2.93

Query :: Again, but for `O=C(NCCCO)c1cc(N(CCCl)CCCl)c([N+](=O)[O-])cc1[N+](=O)[O-]`
Result :: 3.61

Query :: Then CS(=O)(=O)OCCN(CCBr)c1cc(C(=O)NCC(O)CO)c([N+](=O)[O-])cc1[N+](=O)[O-] (centres undefined) ?
Result :: 3.11

Query :: Moving on to `O=C(NOCCO)c1cc(N(CCCl)CCCl)c([N+](=O)[O-])cc1[N+](=O)[O-]`
Result :: 3.32
